List of pIC50 values.
assay: Cytotoxicity against p53 deficient human HCT116 cells after 72 hrs by MTS assay; type: functional, cell-based; conditions: HCT-116, 72 h
pIC50: −log10 of the molar value.

molecule	pIC50
CC(=O)NC1=C[C@]2(C)[C@H]3CC[C@@H]4[C@H]5[C@H]6OC[C@@]5(CCC6(C)C)CC[C@@]4(C)[C@]3(C)CC[C@H]2C(C)(C)C1=O	< 4.30
CC(C)[C@@H]1CC[C@]2(C(=O)O)CC[C@]3(C)[C@H](CC[C@@H]4[C@@]5(C)CC([N+](=O)[O-])=C(O)C(C)(C)[C@@H]5CC[C@]43C)[C@@H]12	< 4.30
CC(C)[C@@H]1CC[C@]2(C(=O)O)CC[C@]3(C)[C@H](CC[C@@H]4[C@@]5(C)CC(N=[N+]=[N-])C(=O)C(C)(C)[C@@H]5CC[C@]43C)[C@@H]12 (stereo partly drawn)	< 4.30

###

experiment: Cytotoxicity against human HCT116 cells after 72 hrs by MTS assay; type: functional, cell-based; conditions: HCT-116, 72 h
measurement-label: IC50 (µM)

molecule	measurement-label	censor-symbol	value-measured
CC(C)[C@@H]1CC[C@]2(C(=O)O)CC[C@]3(C)[C@H](CC[C@@H]4[C@@]5(C)C=C(NC6=C[C@]7(C)[C@H]8CC[C@@H]9[C@H]%10[C@H](C(C)C)CC[C@]%10(C(=O)O)CC[C@@]9(C)[C@]8(C)CC[C@H]7C(C)(C)C6=O)C(=O)C(C)(C)[C@@H]5CC[C@]43C)[C@@H]12	IC50	>	50
CC(C)[C@@H]1CC[C@]2(C(=O)O)CC[C@]3(C)[C@H](CC[C@@H]4[C@@]5(C)C=C(N)C(=O)C(C)(C)[C@@H]5CC[C@]43C)[C@@H]12	IC50	>	50
CC(=O)NC1C[C@]2(C)[C@H]3CC[C@@H]4[C@H]5[C@H]6OC[C@@]5(CCC6(C)C)CC[C@@]4(C)[C@]3(C)CC[C@H]2C(C)(C)C1=O (stereo not given in full)	IC50	=	42.9
CC(C)[C@@H]1CC[C@]2(C(=O)O)CC[C@]3(C)[C@H](CC[C@@H]4[C@@]5(C)CC([N+](=O)[O-])=C(O)C(C)(C)[C@@H]5CC[C@]43C)[C@@H]12	IC50	>	50
CC1(C)CC[C@]23CC[C@]4(C)[C@H](CC[C@@H]5[C@@]6(C)C=C(O)C(=O)C(C)(C)[C@@H]6CC[C@]54C)[C@H]2[C@H]1OC3	IC50	=	41.6

###

experiment: Cytotoxicity against human BJ cells after 72 hrs by MTS assay; assay type: toxicity, cell-based
List of IC50 at 72 h values.

compound	IC50 at 72 h
COC(=O)[C@]12CC[C@@H](C(C)C)[C@@H]1[C@H]1CC[C@@H]3[C@@]4(C)CC(S)C(=O)C(C)(C)[C@@H]4CC[C@@]3(C)[C@]1(C)CC2 (stereo not given in full)	> 50 µM
CC(=O)NC1C[C@]2(C)[C@H]3CC[C@@H]4[C@H]5[C@H]6OC[C@@]5(CCC6(C)C)CC[C@@]4(C)[C@]3(C)CC[C@H]2C(C)(C)C1=O (stereo not given in full)	> 50 µM
CC1(C)CC[C@]23CC[C@]4(C)[C@H](CC[C@@H]5[C@@]6(C)CC(N)[C@H](O)C(C)(C)[C@@H]6CC[C@]54C)[C@H]2[C@H]1OC3 (stereo not given in full)	7.1 µM
CC(C)[C@@H]1CC[C@]2(C(=O)O)CC[C@]3(C)[C@H](CC[C@@H]4[C@@]5(C)C=C(N)C(=O)C(C)(C)[C@@H]5CC[C@]43C)[C@@H]12	> 50 µM
CC(=O)NC1=C[C@]2(C)[C@H]3CC[C@@H]4[C@H]5[C@H]6OC[C@@]5(CCC6(C)C)CC[C@@]4(C)[C@]3(C)CC[C@H]2C(C)(C)C1=O	> 50 µM
CC(C)[C@@H]1CC[C@]2(C(=O)O)CC[C@]3(C)[C@H](CC[C@@H]4[C@@]5(C)C=C(NC6=C[C@]7(C)[C@H]8CC[C@@H]9[C@H]%10[C@H](C(C)C)CC[C@]%10(C(=O)O)CC[C@@]9(C)[C@]8(C)CC[C@H]7C(C)(C)C6=O)C(=O)C(C)(C)[C@@H]5CC[C@]43C)[C@@H]12	> 50 µM
CC1(C)CC[C@]23CC[C@]4(C)[C@H](CC[C@@H]5[C@@]6(C)C=C(O)C(=O)C(C)(C)[C@@H]6CC[C@]54C)[C@H]2[C@H]1OC3	> 50 µM
CC(C)[C@@H]1CC[C@]2(C(=O)O)CC[C@]3(C)[C@H](CC[C@@H]4[C@@]5(C)CC([N+](=O)[O-])([N+](=O)[O-])C(=O)C(C)(C)[C@@H]5CC[C@]43C)[C@@H]12	> 50 µM
CC(C)[C@@H]1CC[C@]2(C(=O)O)CC[C@]3(C)[C@H](CC[C@@H]4[C@@]5(C)CC([N+](=O)[O-])=C(O)C(C)(C)[C@@H]5CC[C@]43C)[C@@H]12	> 50 µM
CC(C)[C@@H]1CC[C@]2(C(=O)O)CC[C@]3(C)[C@H](CC[C@@H]4[C@@]5(C)CC(N=[N+]=[N-])C(=O)C(C)(C)[C@@H]5CC[C@]43C)[C@@H]12 (stereo not given in full)	> 50 µM

###

experiment: Cytotoxicity against human MRC5 cells after 72 hrs by MTS assay; format: toxicity, cell-based
List of IC50 at 72 h values.
measurement-label: IC50 at 72 h

compound	measurement-label	value-measured
CC(C)[C@@H]1CC[C@]2(C(=O)O)CC[C@]3(C)[C@H](CC[C@@H]4[C@@]5(C)CC([N+](=O)[O-])([N+](=O)[O-])C(=O)C(C)(C)[C@@H]5CC[C@]43C)[C@@H]12	IC50 at 72 h	> 50 µM
CC(C)[C@@H]1CC[C@]2(C(=O)O)CC[C@]3(C)[C@H](CC[C@@H]4[C@@]5(C)CC(N=[N+]=[N-])C(=O)C(C)(C)[C@@H]5CC[C@]43C)[C@@H]12 (stereo not given in full)	IC50 at 72 h	> 50 µM
CC(C)[C@@H]1CC[C@]2(C(=O)O)CC[C@]3(C)[C@H](CC[C@@H]4[C@@]5(C)C=C(N)C(=O)C(C)(C)[C@@H]5CC[C@]43C)[C@@H]12	IC50 at 72 h	> 50 µM
CC(=O)NC1=C[C@]2(C)[C@H]3CC[C@@H]4[C@H]5[C@H]6OC[C@@]5(CCC6(C)C)CC[C@@]4(C)[C@]3(C)CC[C@H]2C(C)(C)C1=O	IC50 at 72 h	> 50 µM
CC(C)[C@@H]1CC[C@]2(C(=O)O)CC[C@]3(C)[C@H](CC[C@@H]4[C@@]5(C)CC([N+](=O)[O-])=C(O)C(C)(C)[C@@H]5CC[C@]43C)[C@@H]12	IC50 at 72 h	> 50 µM
COC(=O)[C@]12CC[C@@H](C(C)C)[C@@H]1[C@H]1CC[C@@H]3[C@@]4(C)CC(S)C(=O)C(C)(C)[C@@H]4CC[C@@]3(C)[C@]1(C)CC2 (stereo not given in full)	IC50 at 72 h	> 50 µM
CC(=O)NC1C[C@]2(C)[C@H]3CC[C@@H]4[C@H]5[C@H]6OC[C@@]5(CCC6(C)C)CC[C@@]4(C)[C@]3(C)CC[C@H]2C(C)(C)C1=O (stereo not given in full)	IC50 at 72 h	21.6 µM
CC1(C)CC[C@]23CC[C@]4(C)[C@H](CC[C@@H]5[C@@]6(C)CC(N)[C@H](O)C(C)(C)[C@@H]6CC[C@]54C)[C@H]2[C@H]1OC3 (stereo not given in full)	IC50 at 72 h	6.3 µM
CC(C)[C@@H]1CC[C@]2(C(=O)O)CC[C@]3(C)[C@H](CC[C@@H]4[C@@]5(C)C=C(NC6=C[C@]7(C)[C@H]8CC[C@@H]9[C@H]%10[C@H](C(C)C)CC[C@]%10(C(=O)O)CC[C@@]9(C)[C@]8(C)CC[C@H]7C(C)(C)C6=O)C(=O)C(C)(C)[C@@H]5CC[C@]43C)[C@@H]12	IC50 at 72 h	> 50 µM
CC1(C)CC[C@]23CC[C@]4(C)[C@H](CC[C@@H]5[C@@]6(C)C=C(O)C(=O)C(C)(C)[C@@H]6CC[C@]54C)[C@H]2[C@H]1OC3	IC50 at 72 h	25.4 µM

###

List of pIC50 values.
experiment: Cytotoxicity against human CEM/DNR cells after 72 hrs by MTS assay; format: functional, cell-based
pIC50: −log10 of the molar value.

molecule	censor-symbol	pIC50
CC(=O)NC1C[C@]2(C)[C@H]3CC[C@@H]4[C@H]5[C@H]6OC[C@@]5(CCC6(C)C)CC[C@@]4(C)[C@]3(C)CC[C@H]2C(C)(C)C1=O (stereo partly specified)	<	4.30
COC(=O)[C@]12CC[C@@H](C(C)C)[C@@H]1[C@H]1CC[C@@H]3[C@@]4(C)CC(S)C(=O)C(C)(C)[C@@H]4CC[C@@]3(C)[C@]1(C)CC2 (stereo partly specified)	<	4.30
CC(C)[C@@H]1CC[C@]2(C(=O)O)CC[C@]3(C)[C@H](CC[C@@H]4[C@@]5(C)C=C(NC6=C[C@]7(C)[C@H]8CC[C@@H]9[C@H]%10[C@H](C(C)C)CC[C@]%10(C(=O)O)CC[C@@]9(C)[C@]8(C)CC[C@H]7C(C)(C)C6=O)C(=O)C(C)(C)[C@@H]5CC[C@]43C)[C@@H]12	=	4.47
CC1(C)CC[C@]23CC[C@]4(C)[C@H](CC[C@@H]5[C@@]6(C)CC(N)[C@H](O)C(C)(C)[C@@H]6CC[C@]54C)[C@H]2[C@H]1OC3 (stereo partly specified)	=	5.23
CC1(C)CC[C@]23CC[C@]4(C)[C@H](CC[C@@H]5[C@@]6(C)C=C(O)C(=O)C(C)(C)[C@@H]6CC[C@]54C)[C@H]2[C@H]1OC3	<	4.30
CC(C)[C@@H]1CC[C@]2(C(=O)O)CC[C@]3(C)[C@H](CC[C@@H]4[C@@]5(C)CC([N+](=O)[O-])=C(O)C(C)(C)[C@@H]5CC[C@]43C)[C@@H]12	=	4.44

Reference source for all entries: ChEMBL document CHEMBL3856208
